Listed here are compounds together with their documented Mean % compound remaining at 2 hrs, 37° C..
experiment: Stability of steroid C-21 esters, carbonates and carbamates in rat lung homogenate; conditions: Active rat lung homogenate; 900 nM; n=3
Write the number in % without appending the unit.

compound: CC(C)[C@@H](N)C(=O)OCC(=O)[C@@]12O[C@H](C3CCCCC3)O[C@@H]1C[C@H]1[C@@H]3CCC4=CC(=O)C=C[C@]4(C)[C@H]3[C@@H](O)C[C@@]12C
readoutUnit: %
testResult: 45

Now consider the entry below.
Could you tell me which Mean % compound remaining at 2 hrs, 37° C. is on file for "CCN(CC)Cc1cccc(C(=O)OCC(=O)[C@@]23O[C@H](C4CCCCC4)O[C@@H]2C[C@H]2[C@@H]4CCC5=CC(=O)C=C[C@]5(C)[C@H]4[C@@H](O)C[C@@]23C)c1" ?
68

====

experiment: Stability of steroid C-21 esters, carbonates and carbamates in rat lung homogenate; conditions: Inactive (heat-inactivated) rat lung homogenate; 900 nM; n=3
observationType: Mean % compound remaining at 2 hrs, 37° C. (%)
Write the number in % without appending the unit.

Use the examples below as a reference point.
chemicalString: CN1CCN(C(=O)OCC(=O)[C@@]23O[C@H](C4CCCCC4)O[C@@H]2C[C@H]2[C@@H]4CCC5=CC(=O)C=C[C@]5(C)[C@H]4[C@@H](O)C[C@@]23C)CC1
testResult: 78

chemicalString: CN(C)CCNC(=O)OCC(=O)[C@@]12O[C@H](C3CCCCC3)O[C@@H]1C[C@H]1[C@@H]3CCC4=CC(=O)C=C[C@]4(C)[C@H]3[C@@H](O)C[C@@]12C
testResult: 78

Now consider the entry below.
Could you tell me which Mean % compound remaining at 2 hrs, 37° C. is on file for "C[C@]12C=CC(=O)C=C1CC[C@@H]1[C@@H]2[C@@H](O)C[C@@]2(C)[C@H]1C[C@H]1O[C@@H](C3CCCCC3)O[C@]12C(=O)COC(=O)/C=C/c1cccnc1" ?
78

====

Listed here are compounds together with their documented Mean % compound remaining at 2 hrs, 37° C..
assay: Stability of steroid C-21 esters, carbonates and carbamates in rat lung homogenate; settings: Active rat lung homogenate; 900 nM; n=3
Write the number in % without appending the unit.

Use the examples below as a reference point.
compound: CC(C)[C@@H](C(=O)OCC(=O)[C@@]12O[C@H](C3CCCCC3)O[C@@H]1C[C@H]1[C@@H]3CCC4=CC(=O)C=C[C@]4(C)[C@H]3[C@@H](O)C[C@@]12C)N(C)C [Example 79]
readoutUnit: %
testResult: 85

compound: CCN(CC)Cc1ccc(C(=O)OCC(=O)[C@@]23O[C@H](C4CCCCC4)O[C@@H]2C[C@H]2[C@@H]4CCC5=CC(=O)C=C[C@]5(C)[C@H]4[C@@H](O)C[C@@]23C)cc1 [Example 30]
readoutUnit: %
testResult: 46

compound: CN(C)CCN(C)C(=O)OCC(=O)[C@@]12O[C@H](C3CCCCC3)O[C@@H]1C[C@H]1[C@@H]3CCC4=CC(=O)C=C[C@]4(C)[C@H]3[C@@H](O)C[C@@]12C [Example 40]
readoutUnit: %
testResult: 83

compound: CC(CN(C)C)OC(=O)OCC(=O)[C@@]12O[C@H](C3CCCCC3)O[C@@H]1C[C@H]1[C@@H]3CCC4=CC(=O)C=C[C@]4(C)[C@H]3[C@@H](O)C[C@@]12C (some centres unmarked) [Example 28]
readoutUnit: %
testResult: 45

Now consider the entry below.
Could you tell me which Mean % compound remaining at 2 hrs, 37° C. is on file for CN1CCC[C@H]1C(=O)OCC(=O)[C@@]12O[C@H](C3CCCCC3)O[C@@H]1C[C@H]1[C@@H]3CCC4=CC(=O)C=C[C@]4(C)[C@H]3[C@@H](O)C[C@@]12C [Example 38] ?
1

====

Listed here are compounds together with their documented Mean % compound remaining at 2 hrs, 37° C..
experiment: Stability of steroid C-21 esters, carbonates and carbamates in rat lung homogenate; details: Active rat lung homogenate; 900 nM; n=3
Give the figure together with its unit, number first.

compound: C[C@]12C=CC(=O)C=C1CC[C@@H]1[C@@H]2[C@@H](O)C[C@@]2(C)[C@H]1C[C@H]1O[C@@H](C3CCCCC3)O[C@]12C(=O)COC(=O)c1cccnc1 [Example 29]
testResult: 1%
//
compound: C[C@]12C=CC(=O)C=C1CC[C@@H]1[C@@H]2[C@@H](O)C[C@@]2(C)[C@H]1C[C@H]1O[C@@H](C3CCCCC3)O[C@]12C(=O)COC(=O)Cc1cccnc1 [Example 76]
testResult: 2%
//
compound: C[C@]12C=CC(=O)C=C1CC[C@@H]1[C@@H]2[C@@H](O)C[C@@]2(C)[C@H]1C[C@H]1O[C@@H](C3CCCCC3)O[C@]12C(=O)CO [des-ciclesonide, desisobutyryl ciclesonide, reference compound]
testResult: 98%
//
compound: C[C@]12C=CC(=O)C=C1CC[C@@H]1[C@@H]2[C@@H](O)C[C@@]2(C)[C@H]1C[C@H]1O[C@@H](C3CCCCC3)O[C@]12C(=O)COC(=O)CCc1cccnc1 [Example 34]
testResult: 0%
//
compound: CN(C)CCNC(=O)OCC(=O)[C@@]12O[C@H](C3CCCCC3)O[C@@H]1C[C@H]1[C@@H]3CCC4=CC(=O)C=C[C@]4(C)[C@H]3[C@@H](O)C[C@@]12C [Example 39]
testResult: 92%

Could you tell me which Mean % compound remaining at 2 hrs, 37° C. is on file for CN(C)CC(=O)OCC(=O)[C@@]12O[C@H](C3CCCCC3)O[C@@H]1C[C@H]1[C@@H]3CCC4=CC(=O)C=C[C@]4(C)[C@H]3[C@@H](O)C[C@@]12C [Example 75] ?
1%
